Below, each of the compounds is paired with its reported MIC value.
Test system: Mycobacterium tuberculosis
Assay: Antimycobacterial activity against multidrug-resistant Mycobacterium tuberculosis Praha 131 after 7 days by micromethod
Assay type: functional
Conditions: Praha 131, 168 h
REPORTED PROPERTY: MIC (µM)

1. O=[N+]([O-])c1cc(CSc2nnnn2C2CCCCC2)cc([N+](=O)[O-])c1; 1
2. O=[N+]([O-])c1cc(C[Se]c2nnnn2C2CCCCC2)cc([N+](=O)[O-])c1; 1
3. CCCCCCn1nnnc1[Se]Cc1cc([N+](=O)[O-])cc([N+](=O)[O-])c1; 1
4. NNC(=O)c1ccncc1 [ISONIAZID]; 0.25
5. CC1COc2c(N3CCN(C)CC3)c(F)cc3c(=O)c(C(=O)O)cn1c23 (stereo unspecified) [OFLOXACIN]; 0.5
6. CC[C@@H](CO)NCCN[C@@H](CC)CO [ETHAMBUTOL]; 0.5
7. COc1ccc(-n2nnnc2[Se]Cc2cc([N+](=O)[O-])cc([N+](=O)[O-])c2)cc1; 1
8. CO[C@H]1/C=C/O[C@@]2(C)Oc3c(C)c(O)c4c(O)c(c(/C=N/N5CCN(C)CC5)c(O)c4c3C2=O)NC(=O)/C(C)=C\C=C\[C@H](C)[C@H](O)[C@@H](C)[C@@H](O)[C@@H](C)[C@H](OC(C)=O)[C@@H]1C [RIFAMPIN]; 2
9. CN[C@@H]1[C@H](O[C@H]2[C@H](O[C@H]3[C@H](O)[C@@H](O)[C@H](N=C(N)N)[C@@H](O)[C@@H]3N=C(N)N)O[C@@H](C)[C@]2(O)C=O)O[C@@H](CO)[C@H](O)[C@H]1O [STREPTOMYCIN]; 0.5
10. CC(C)/N=c1\cc2n(-c3ccc(Cl)cc3)c3ccccc3nc-2cc1Nc1ccc(Cl)cc1 [CLOFAZIMINE]; 1

These measurements were taken from ChEMBL document CHEMBL3297661.
